Reported IC50 values follow for various compounds
# Assay target: purified human HDAC6 (Homo sapiens, UniProt Q9UBN7)
# Construct: purchased BPS Bioscience 5006
# Test protocol: HDAC6 Enzyme Assay
# Format: biochemical
# Experimental setup: purified human HDAC6, substrate Ac-Arg-Gly-Lys(Ac)-AMC, 1 hour at 30° C.; reported as bins
# Experimental: To measure the inhibition of HDAC6 activity, purified human HDAC6 (BPS Bioscience; Cat. No. 5006) is incubated with substrate Ac-Arg-Gly-Lys(Ac)-AMC peptide (Bachem Biosciences; Cat. No. 1-1925) for 1 hour at 30° C. in the presence of test compounds or vehicle DMSO control. […] Concentration response curves are generated by calculating the fluorescence increase in test compound-treated samples relative to DMSO-treated controls, and enzyme inhibition (IC50) values are determined from those curves.

CC(NC(=O)C1=Cc2ccccc2OC1)c1ccc(C(=O)NO)cc1 (centres unmarked) [Compound I-224]    < 100 nM
CC(C)C(NC(=O)c1cc2ccccc2o1)c1ccc(C(=O)NO)cc1 (centres unmarked) [Compound I-32]    < 100 nM

Prompt: Would you mind telling me what IC50 value was observed for Cc1ccc(NC(=O)NC(C)c2ccc(C(=O)NO)cc2)cc1Cl (centres unmarked) [Compound I-103] ?
Completion: < 100 nM

Prompt: Entry Cc1cc(C)c(S(=O)(=O)NC(C)c2ccc(C(=O)NO)cc2)c(C)c1 (centres unmarked) [Compound I-176] : reported IC50 = ?
Completion: 100 to 500 nM

Prompt: Consider the compound CC(C)[C@@H](NC(=O)C12CC3CC(CC(O)(C3)C1)C2)c1ccc(C(=O)NO)cc1 [Compound I-223] and give its measured IC50.
Completion: < 100 nM

Prompt: # IC50 lookup, item C[C@@H](NC(=O)c1cc2ccccc2n1C)c1ccc(C(=O)NO)cc1 [Compound I-115]
Completion: < 100 nM

Prompt: Give its IC50 value. Item: C[C@@H](NC(=O)c1cc2oc(-c3ccccc3)cc2n1C)c1cccc(C(=O)NO)c1 [Compound I-16]
Completion: 100 to 500 nM

Prompt: Consider the compound CC(C)C(NC(=O)c1cccc2ccccc12)c1ccc(C(=O)NO)cc1 (centres unmarked) [Compound I-331] and give its measured IC50.
Completion: 100 to 500 nM

Prompt: Request the reported IC50 associated with CC(NC(=O)Nc1ccc(OC(F)(F)F)cc1)c1ccc(C(=O)NO)cc1 (centres unmarked) [Compound I-141]
Completion: < 100 nM

Prompt: Name the reported IC50 value associated with the compound CC(C)C(NC(=O)c1ccc2ncsc2c1)c1ccc(C(=O)NO)cc1 (centres unmarked) [Compound I-43]
Completion: 100 to 500 nM

* * *

# Assay target: purified human HDAC6 (Homo sapiens, UniProt Q9UBN7)
# Construct: purchased BPS Bioscience 5006
# Sequence (Q9UBN7 1-1215): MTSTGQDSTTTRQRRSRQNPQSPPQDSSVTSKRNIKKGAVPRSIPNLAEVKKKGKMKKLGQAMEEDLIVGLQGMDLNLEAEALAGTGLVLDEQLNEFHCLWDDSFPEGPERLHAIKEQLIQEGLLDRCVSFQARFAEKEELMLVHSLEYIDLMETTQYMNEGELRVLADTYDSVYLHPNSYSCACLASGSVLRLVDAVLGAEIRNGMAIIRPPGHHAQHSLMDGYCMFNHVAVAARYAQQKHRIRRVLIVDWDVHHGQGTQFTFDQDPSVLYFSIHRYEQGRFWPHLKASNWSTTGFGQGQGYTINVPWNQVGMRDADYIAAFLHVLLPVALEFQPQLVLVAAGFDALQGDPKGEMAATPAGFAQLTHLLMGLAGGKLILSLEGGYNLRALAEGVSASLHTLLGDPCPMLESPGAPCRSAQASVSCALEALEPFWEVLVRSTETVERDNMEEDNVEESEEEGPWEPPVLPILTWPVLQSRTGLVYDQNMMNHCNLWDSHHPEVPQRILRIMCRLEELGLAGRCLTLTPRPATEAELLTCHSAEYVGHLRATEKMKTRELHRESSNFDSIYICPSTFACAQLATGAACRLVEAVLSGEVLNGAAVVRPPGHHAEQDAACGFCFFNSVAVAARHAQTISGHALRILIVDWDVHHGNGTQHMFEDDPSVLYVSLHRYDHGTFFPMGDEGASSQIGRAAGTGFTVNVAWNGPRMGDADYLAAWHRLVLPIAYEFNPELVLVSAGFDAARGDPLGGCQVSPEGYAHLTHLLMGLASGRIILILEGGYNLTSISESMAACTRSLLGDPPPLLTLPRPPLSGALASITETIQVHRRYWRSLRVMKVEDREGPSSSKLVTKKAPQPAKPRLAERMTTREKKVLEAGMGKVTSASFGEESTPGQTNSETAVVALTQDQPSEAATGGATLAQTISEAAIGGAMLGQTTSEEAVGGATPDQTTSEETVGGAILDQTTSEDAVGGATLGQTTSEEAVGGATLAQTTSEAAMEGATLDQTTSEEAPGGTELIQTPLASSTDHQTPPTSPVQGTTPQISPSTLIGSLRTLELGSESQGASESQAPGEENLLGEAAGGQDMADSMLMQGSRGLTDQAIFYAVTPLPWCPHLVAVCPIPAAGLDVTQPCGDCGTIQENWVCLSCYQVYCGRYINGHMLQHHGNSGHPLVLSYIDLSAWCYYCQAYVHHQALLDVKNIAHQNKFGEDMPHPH
# Test protocol: HDAC6 Enzyme Assay
# Assay type: biochemical
# Experimental setup: bin: greater than 1 μM
pIC50: −log10 of the molar value.
Parameter: pIC50

Solved entries:
CC(NC(=O)c1csc2ccccc12)c1ccc(C(=O)NO)cc1 (stereo not drawn) [Compound I-244]    < 6.00
CC(NC(=O)CC1CC1)c1ccc(C(=O)NO)cc1 (stereo not drawn) [Compound I-379]    < 6.00
Cc1noc(C)c1C(=O)NC(c1ccc(C(=O)NO)cc1)C(C)(C)C (stereo not drawn) [Compound I-200]    < 6.00

Prompt: Please look up its pIC50: CC(C)(C)C(NC(=O)C12CC3CC(CC(C3)C1)C2)c1ccc(C(=O)NO)cc1 (stereo not drawn) [Compound I-162]
Completion: < 6.00

Prompt: Need pIC50 of COc1ccc(CC(=O)NC(C)c2ccc(C(=O)NO)cc2)cc1 (stereo not drawn) [Compound I-159] , thanks.
Completion: < 6.00

Prompt: Look at this compound and give its reported pIC50. Cn1c(C(=O)NC(c2ccc(C(=O)NO)cc2)C(C)(C)C)cc(Cl)c1Cl (stereo not drawn) [Compound I-386]
Completion: < 6.00
